System: Pseudomonas aeruginosa
Conditions: Pseudomonas aeruginosa, average of triplicates
Experimental: Antimicrobial activity was tested against three categories of human and plant pathogenic microorganisms: Gram-positive (Bacillus subtilis, Bacillus cereus, Staphylococcus aureus), Gram-negative (Escherichia coli, Pseudomonas aeruginosa, Erwinia carotovora, Pseudomonas syringae pv. tabaci, Xanthomonas campestris pv. citri) and yeasts (Candida albicans, Cryptococcus neoformans), as previously reported. […]
Please use true whenever Minimum inhibitory concentration, Average is not below 20 µM, and false whenever it is.

Take a look at these entries with their results.
FFGHIWHGARTLFRDVFA [Cs02]: true
GSLHGFMYKYLKNMVLTLF [At01]: true

Textbook exercise: given the entry GIGDILKNLAKAAGKAALHAVGESL [HSP-4, Hylaseptin-4, reference compound] , state whether its Minimum inhibitory concentration, Average is greater than or equal to 20 µM. false

Textbook exercise: given the entry GSLHGFMYKYLKNMVLNLF [Tc06] , state whether its Minimum inhibitory concentration, Average is greater than or equal to 20 µM. true

Textbook exercise: given the entry FLSLIPHAINAVSTLVHHF [PS-2, reference compound] , state whether its Minimum inhibitory concentration, Average is greater than or equal to 20 µM. true

Textbook exercise: given the entry IKLRNVLKYLFRIDVIKEDIL [Tc03] , state whether its Minimum inhibitory concentration, Average is greater than or equal to 20 µM. true

Textbook exercise: given the entry KVLSKVHTLLKAVLAL [At02] , state whether its Minimum inhibitory concentration, Average is greater than or equal to 20 µM. false

Textbook exercise: given the entry GIGKFLHSAKKFGKAFVGEIMNS [Mag-2a, Magainin-2a, reference compound] , state whether its Minimum inhibitory concentration, Average is greater than or equal to 20 µM. true

Textbook exercise: given the entry LHRLVKLVAALLRGYASKVDTH [Tc08] , state whether its Minimum inhibitory concentration, Average is greater than or equal to 20 µM. false

Textbook exercise: given the entry GSLHGFMYRYLKNMVLNLF [Cs01] , state whether its Minimum inhibitory concentration, Average is greater than or equal to 20 µM. true

Textbook exercise: given the entry GKILKYLLYLLRKYANLIIR [Tc02] , state whether its Minimum inhibitory concentration, Average is greater than or equal to 20 µM. false

Textbook exercise: given the entry GLKDMIKNLAKEAAVKLAGAVINKFSPQPQ [Nat-1, Nattererin-1, reference compound] , state whether its Minimum inhibitory concentration, Average is greater than or equal to 20 µM. true

---

test system: Staphylococcus aureus; settings: Staphylococcus aureus, CLSI M7-A10, triplicate 1
reportedMetric: Minimum inhibitory concentration (µM)
Provide the reading as a plain figure in µM.

Sample answers from the record:
FFYNVIKIYGNMAGRISK [Cs03]: 128
GIGDILKNLAKAAGKAALHAVGESL [HSP-4, Hylaseptin-4, reference compound]: 8
GLLFKELQKLIRYQIFIGK [Tc10]: 512
FFGHIWHGARTLFRDVFA [Cs02]: 8
GFKLGRKLVKVFKWII [Gr01]: 0.5
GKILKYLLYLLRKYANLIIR [Tc02]: 8

The sequence GSLHGFMYKYLKNMVLNLF [Tc06] , when measured on Staphylococcus aureus, yielded Minimum inhibitory concentration of 8

The sequence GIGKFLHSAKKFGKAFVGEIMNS [Mag-2a, Magainin-2a, reference compound] , when measured on Staphylococcus aureus, yielded Minimum inhibitory concentration of 512

The sequence GSLHGFMYRYLKNMVLNLF [Cs01] , when measured on Staphylococcus aureus, yielded Minimum inhibitory concentration of 4

The sequence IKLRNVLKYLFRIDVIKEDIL [Tc03] , when measured on Staphylococcus aureus, yielded Minimum inhibitory concentration of 512

The sequence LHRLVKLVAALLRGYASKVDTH [Tc08] , when measured on Staphylococcus aureus, yielded Minimum inhibitory concentration of 2

The sequence GFKDLLKGAAKALVKTVLF [Asc-8, Ascaphin 8, reference compound] , when measured on Staphylococcus aureus, yielded Minimum inhibitory concentration of 2

The sequence FLSLIPHAINAVSTLVHHF [PS-2, reference compound] , when measured on Staphylococcus aureus, yielded Minimum inhibitory concentration of 8

---

test system: Staphylococcus aureus; details: Staphylococcus aureus, triplicate 2
reportedMetric: log10(Minimum inhibitory concentration) (log10 of the value in µM)
Give log10 of Minimum inhibitory concentration, with Minimum inhibitory concentration taken in µM.

Sample answers from the record:
KVLSKVHTLLKAVLAL [At02]: 0.60
GFKDLLKGAAKALVKTVLF [Asc-8, Ascaphin 8, reference compound]: 0.30
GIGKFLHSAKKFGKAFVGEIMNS [Mag-2a, Magainin-2a, reference compound]: 2.71
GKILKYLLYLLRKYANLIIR [Tc02]: 0.90
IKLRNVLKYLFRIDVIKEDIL [Tc03]: 2.71
GSLHGFMYRYLKNMVLNLF [Cs01]: 0.60

The sequence listed as FFGHIWHGARTLFRDVFA [Cs02] shows log10(Minimum inhibitory concentration) equal to 0.90

The sequence listed as GLKDMIKNLAKEAAVKLAGAVINKFSPQPQ [Nat-1, Nattererin-1, reference compound] shows log10(Minimum inhibitory concentration) equal to 1.51

---

test system: Pseudomonas aeruginosa; settings: Pseudomonas aeruginosa, CLSI M7-A10, triplicate 1
sequences and their reported log10 of Minimum inhibitory concentration
Give log10 of Minimum inhibitory concentration, with Minimum inhibitory concentration taken in µM.

Sample answers from the record:
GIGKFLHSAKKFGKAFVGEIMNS [Mag-2a, Magainin-2a, reference compound]: 2.71
GFKDLLKGAAKALVKTVLF [Asc-8, Ascaphin 8, reference compound]: 0.60
KVLSKVHTLLKAVLAL [At02]: 0.60
GSLHGFMYRYLKNMVLNLF [Cs01]: 1.51
ANRLLEAYKMLLKFLGNLR [Gr02]: 1.51
GAKLAKKQVRALGKFFSF [At03]: 2.71
GFKLGRKLVKVFKWII [Gr01]: 0.30
GLKDMIKNLAKEAAVKLAGAVINKFSPQPQ [Nat-1, Nattererin-1, reference compound]: 1.51

The sequence listed as FLSLIPHAINAVSTLVHHF [PS-2, reference compound] shows log10 of Minimum inhibitory concentration equal to 2.71

The sequence listed as GSLHGFMYKYLKNMVLTLF [At01] shows log10 of Minimum inhibitory concentration equal to 1.51

The sequence listed as GSLHGFMYKYLKNMVLNLF [Tc06] shows log10 of Minimum inhibitory concentration equal to 1.20

The sequence listed as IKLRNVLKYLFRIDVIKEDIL [Tc03] shows log10 of Minimum inhibitory concentration equal to 2.71

---

tested on: Bacillus subtilis; conditions: Bacillus subtilis, CLSI M7-A10, triplicate 1
Please use MET whenever Minimum inhibitory concentration is not below 8 µM, and NOT MET whenever it is.

Take a look at these entries with their results.
FFYNVIKIYGNMAGRISK [Cs03]: MET
GFKDLLKGAAKALVKTVLF [Asc-8, Ascaphin 8, reference compound]: NOT MET
ANRLLEAYKMLLKFLGNLR [Gr02]: NOT MET
GSLHGFMYKYLKNMVLNLF [Tc06]: MET

Textbook exercise: given the entry IVNHLVKLFDKGLNSIVNLR [Tc05] , state whether its Minimum inhibitory concentration is greater than or equal to 8 µM. MET

Textbook exercise: given the entry GSLHGFMYKYLKNMVLTLF [At01] , state whether its Minimum inhibitory concentration is greater than or equal to 8 µM. MET

---

test system: Cryptococcus neoformans; conditions: Cryptococcus neoformans, triplicate 2
Please use YES whenever Minimum inhibitory concentration is not below 60 µM, and NO whenever it is.

Take a look at these entries with their results.
GAKLAKKQVRALGKFFSF [At03]: YES
ANRLLEAYKMLLKFLGNLR [Gr02]: NO
KVLSKVHTLLKAVLAL [At02]: NO
GFKDLLKGAAKALVKTVLF [Asc-8, Ascaphin 8, reference compound]: NO
FFGHIWHGARTLFRDVFA [Cs02]: NO
GLLFKELQKLIRYQIFIGK [Tc10]: YES
GSLHGFMYKYLKTLVLRLY [Zm01]: NO
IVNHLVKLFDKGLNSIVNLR [Tc05]: YES
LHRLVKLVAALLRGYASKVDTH [Tc08]: NO

Textbook exercise: given the entry GLYNFIKVLGRTVFGLYKQF [At04] , state whether its Minimum inhibitory concentration is greater than or equal to 60 µM. YES

---

System: Cryptococcus neoformans
Settings: Cryptococcus neoformans, triplicate 2
Procedure: Antimicrobial activity was tested against three categories of human and plant pathogenic microorganisms: Gram-positive (Bacillus subtilis, Bacillus cereus, Staphylococcus aureus), Gram-negative (Escherichia coli, Pseudomonas aeruginosa, Erwinia carotovora, Pseudomonas syringae pv. tabaci, Xanthomonas campestris pv. citri) and yeasts (Candida albicans, Cryptococcus neoformans), as previously reported. […]
reportedMetric: Minimum inhibitory concentration (µM)
Provide the reading as a plain figure in µM.

GSLHGFMYKYLKNMVLNLF [Tc06]: 8
GFKLGRKLVKVFKWII [Gr01]: 1

The sequence GSLHGFMYRYLKNMVLNLF [Cs01] , when measured on Cryptococcus neoformans, yielded Minimum inhibitory concentration of 8

The sequence FFYNVIKIYGNMAGRISK [Cs03] , when measured on Cryptococcus neoformans, yielded Minimum inhibitory concentration of 32

The sequence GSLHGFMYKYLKNMVLTLF [At01] , when measured on Cryptococcus neoformans, yielded Minimum inhibitory concentration of 16

The sequence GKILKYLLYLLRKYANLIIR [Tc02] , when measured on Cryptococcus neoformans, yielded Minimum inhibitory concentration of 1

The sequence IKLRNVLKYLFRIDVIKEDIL [Tc03] , when measured on Cryptococcus neoformans, yielded Minimum inhibitory concentration of 512
